Each record here notes measured inhibition at 500 µM (stock).
assayed.system: α-glucosidase (Saccharomyces cerevisiae)
Sequence (P53341 whole entry): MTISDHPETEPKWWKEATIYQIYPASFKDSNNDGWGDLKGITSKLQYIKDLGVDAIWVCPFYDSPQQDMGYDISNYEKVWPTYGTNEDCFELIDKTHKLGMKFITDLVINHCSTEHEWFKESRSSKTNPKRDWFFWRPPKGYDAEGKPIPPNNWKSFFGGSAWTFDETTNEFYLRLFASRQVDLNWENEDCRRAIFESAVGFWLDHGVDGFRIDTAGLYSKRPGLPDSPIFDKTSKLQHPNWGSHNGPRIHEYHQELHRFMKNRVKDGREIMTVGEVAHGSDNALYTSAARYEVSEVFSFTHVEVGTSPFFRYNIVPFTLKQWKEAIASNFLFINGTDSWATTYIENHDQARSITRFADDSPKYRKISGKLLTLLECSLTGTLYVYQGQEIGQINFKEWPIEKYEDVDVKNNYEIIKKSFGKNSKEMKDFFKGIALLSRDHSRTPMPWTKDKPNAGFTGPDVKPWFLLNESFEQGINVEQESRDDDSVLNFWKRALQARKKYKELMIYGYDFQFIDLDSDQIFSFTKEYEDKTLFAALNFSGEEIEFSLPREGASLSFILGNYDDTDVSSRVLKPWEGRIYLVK
experiment.summary: α-glucosidase inhibition assay (96-well, pNPG substrate, 405 nm)
Format: biochemical
test.settings: S3 Table; test compound 20 μL of 0.5 mM; read-out: Percentage Inhibition
Express the result in % but write the number alone.

As a guide, the following entries are already answered.
compound	result.unit	inhibition at 500 µM (stock)
CCCCCCCCCCCCSc1nc2ccccc2n1CC(=O)N/N=C/c1ccc(O)c(OCC)c1	%	80.1
COc1ccc(S(=O)(=O)N2CCC(c3nnc(SC(C)C(=O)Nc4ccc(C)cc4)n3-c3ccccc3)CC2)cc1 (centres unmarked)	%	81.9
O=C1Oc2ccccc2C(=O)/C1=C/c1ccc(-c2ccccc2)cc1	%	85.6
Clc1ccc(-c2nnc(-c3ccc[nH]3)o2)c(Cl)c1	%	90

Now, please, on to the next compound.
Fill in the blank: the reported inhibition at 500 µM (stock) of `CCSc1nc2ccccc2n1CC(=O)N/N=C/c1ccc(O)cc1O` is ____. 91.2
